system: SARS-CoV-2; experiment: Inhibitory activity of cytopathic effect (CPE) in HEK293T/ACE2-TMPRSS2 cells; assay type: cell-based; conditions: Severe acute respiratory syndrome coronavirus 2, HEK-293T, 72 h; HEK293T/ACE2-TMPRSS2 cells, cultured 3 days, CellTiter-Glo 2.0 luminescence; read-out: EC50 (50% SARS-CoV-2 infected cell death inhibitory concentration)
pEC50: −log10 of the molar value.
pEC50 values for the molecules below.

The examples below pair each entry with its known result.
[2H]C([2H])([2H])O[C@@H]1CCN(c2cc3c(c(OC)n2)c(=O)n(-c2cncc(OCF)c2)c(=O)n3-c2ccc(F)c(Cl)c2)C1; > 7.00
Cn1cnc(Cn2c(=O)c3c4nc[nH]c4c(-c4cc(C#N)ccc4Cl)cc3n(Cc3cc(F)c(F)c(F)c3)c2=O)n1; 6.00 to 7.00
COc1nc2c(=O)n(Cc3ncn(C)n3)c(=O)n(Cc3cc(Cl)ccc3C)c2cc1-c1cc(C#N)ccc1Cl; > 7.00
COc1nc(N2C[C@@H](F)[C@@H](F)C2)cc2c1c(=O)n(-c1cnc3cc(F)ccn13)c(=O)n2-c1ccc(F)c(Cl)c1; > 7.00
COc1nc(N2CC[C@@H](O)C2)cc2c1c(=O)n(-c1cnc3cc(F)ccn13)c(=O)n2-c1ccc(F)c(Cl)c1; > 7.00
COc1nc(N2CCC(F)(F)C2)cc2c1c(=O)n(-c1cncc(F)c1)c(=O)n2-c1ccc(F)c(Cl)c1; > 7.00

[ask] What measured pEC50 goes with `CCOc1nc2c(=O)n(Cc3ncn(C)n3)c(=O)n(Cc3cc(F)c(F)c(F)c3)c2cc1-c1cc(C#N)ccc1Cl` ?
[reply] > 7.00

[ask] Same question for `COc1nc2c(=O)n(Cc3ncn(C)n3)c(=O)n(Cc3cc(Cl)c(F)cc3C)c2cc1-c1nc(C)ccc1Cl` please.
[reply] > 7.00

[ask] Moving on to the next molecule: `COc1nc(N2C[C@@H]3C[C@H]2CO3)cc2c1c(=O)n(-c1cnc3cc(F)ccn13)c(=O)n2-c1ccc(F)c(C(F)F)c1`
[reply] > 7.00

[ask] Thanks! And `COc1cc(-c2cc(C3(O)CC3)ccc2Cl)cc2c1c(=O)n(Cc1ncn(C)n1)c(=O)n2Cc1cc(F)c(F)c(F)c1` ?
[reply] > 7.00

[ask] Please do the same for `COc1cc(-c2ncc(N)cc2Cl)cc2c1c(=O)n(Cc1ncn(C)n1)c(=O)n2Cc1cc(F)c(F)c(F)c1` as well.
[reply] > 7.00

[ask] And `COc1nc(N(C)CC(F)(F)F)cc2c1c(=O)n(-c1cnc3cc(F)ccn13)c(=O)n2-c1ccc(F)c(Cl)c1` ?
[reply] > 7.00

[ask] Try the molecule `COc1nc(N2CC(F)C2)cc2c1c(=O)n(-c1cnc3cc(F)ccn13)c(=O)n2-c1ccc(F)c(Cl)c1`
[reply] > 7.00

---

biological target: SARS-CoV-2 3CL protease (Severe acute respiratory syndrome coronavirus 2); test: Inhibitory activity test against SARS-CoV-2 3CL proteases; type: biochemical; conditions: read-out: IC50 (50% SARS-CoV-2 3CL protease inhibitory concentration)
Parameter: IC50

Past entries and their recorded results:
COc1cc(-c2cc(CC(=O)NC3CCN(C)CC3)ccc2Cl)cc2c1c(=O)n(-c1cncc(Cl)c1)c(=O)n2Cc1cc(F)c(F)c(F)c1 [Compound I-0197]; < 100 nM
COc1cc(-c2cc([C@@H](C)O)ccc2Cl)cc2c1c(=O)n(Cc1ncn(C)n1)c(=O)n2Cc1cc(F)c(F)c(F)c1 [Compound I-0839]; < 100 nM
COc1cc(-c2cc(CC(=O)NC3CCN(C)CC3)ccc2Cl)cc2c1c(=O)n(-c1cncc(Cl)c1)c(=O)n2Cc1ccc(F)c(C#N)c1 [Compound I-0201]; < 100 nM

[ask] Form field - read-out: IC50; system: SARS-CoV-2 3CL protease (Severe acute respiratory syndrome coronavirus 2); submitted item: COc1nc(N2CCC(O)(CF)C2)cc2c1c(=O)n(-c1cncc(Cl)c1)c(=O)n2-c1ccc(F)c(Cl)c1 (stereo not drawn) [Compound I-1004]
[reply] < 100 nM

[ask] Next compound: Cn1cnc(Cn2c(=O)c3c(F)cc(-c4cc5c(cc4Cl)NC(=O)C5)cc3n(Cc3cc(F)c(F)c(F)c3)c2=O)n1 [Compound I-0270]
[reply] < 100 nM

[ask] // repeat for COc1cc(-c2cc(C(C)(C)O)ccc2Cl)cc2c1c(=O)n(Cc1ncn(C)n1)c(=O)n2Cc1cc(F)c(F)c(F)c1 [Compound I-0276] and report
[reply] 24 nM

---

target: UniProt P0DTD1; assay: Inhibitory activity test against SARS-CoV-2 3CL proteases; type: biochemical; details: read-out: IC50 (50% SARS-CoV-2 3CL protease inhibitory concentration)
pIC50: −log10 of the molar value.
Parameter: pIC50

Some solved entries appear below for comparison.
Cc1cnc2c3c(=O)n(Cc4ncn(C)n4)c(=O)n(Cc4cc(F)c(F)c(F)c4)c3cc(-c3cc(C#N)ccc3Cl)n12 [Compound I-0643]; 8.37
COc1nc(N2CC[C@@H](C#N)C2)cc2c1c(=O)n(-c1cncc(F)c1)c(=O)n2-c1ccc(F)c(Cl)c1 [Compound I-0938]; > 7.00

Next up:
[ask] pIC50 of COc1nc(N2CC[C@@H](O)C2)cc2c1c(=O)n(-c1cncc(OC(F)F)c1)c(=O)n2-c1ccc(F)c(F)c1 [Compound I-1040] on UniProt P0DTD1?
[reply] > 7.00

---

biological target: SARS-CoV-2 3CL protease (Severe acute respiratory syndrome coronavirus 2, UniProt P0DTD1); experiment: Inhibitory activity test against SARS-CoV-2 3CL proteases; assay type: biochemical; conditions: read-out: IC50 (50% SARS-CoV-2 3CL protease inhibitory concentration)
Lab note - cut at 6 nM for IC50: Criterion met if strictly below, Criterion not met if not.

COc1cc(-c2c(Cl)ccc3ncccc23)cc2c1c(=O)n(-c1cncc(C)c1)c(=O)n2Cc1ccc(F)c(C#N)c1; Criterion met

[ask] Threshold test, IC50 < 6 nM: `COc1nc2c(=O)n(Cc3ncn(C)n3)c(=O)n(Cc3cc(F)c(F)c(Cl)c3)c2cc1-c1nc(C(=O)NC(C)C)ccc1Cl`
[reply] Criterion met

[ask] // query: `COc1cc(-c2cc(NS(C)(=O)=O)ccc2Cl)cc2c1c(=O)n(-c1cncc(C)c1)c(=O)n2Cc1cc(F)c(F)c(F)c1`
[reply] Criterion not met

[ask] Also, `COc1nc(-c2cc3c(cc2Cl)NC(=O)C3)cc2c1c(=O)n(Cc1ncn(C)n1)c(=O)n2Cc1cc(F)c(F)c(F)c1` please.
[reply] Criterion not met

[ask] Now try NC1CCN(c2ccc3c(=O)n(Cc4ccc[nH]c4=O)c(=O)n(Cc4cc(F)c(F)c(F)c4)c3c2)C1 (stereo not shown) .
[reply] Criterion not met

---

target: SARS-CoV-2 3CL protease (Severe acute respiratory syndrome coronavirus 2); experiment: Inhibitory activity test against SARS-CoV-2 3CL proteases; assay type: biochemical; conditions: read-out: IC50 (50% SARS-CoV-2 3CL protease inhibitory concentration)
The following compounds are shown together with reported IC50 values.
Write down the numeric answer in nM and omit the unit.

COc1cc(-c2c(Cl)ccc3c2CCC(=O)N3C)cc2c1c(=O)n(Cc1ncn(C)n1)c(=O)n2Cc1cc(F)c(F)c(F)c1 [Compound I-0868]; 1.6
Cn1cnc(Cn2c(=O)c3c4c(c(-c5cc(C#N)ccc5Cl)cc3n(Cc3cc(F)c(F)c(F)c3)c2=O)[C@@H](O)CO4)n1 [Compound I-0864]; 1.4

Now take the following compound into account.
[ask] Field: IC50 (SARS-CoV-2 3CL protease (Severe acute respiratory syndrome coronavirus 2)). Entry: COc1cc(-c2cc3c(cc2Cl)NC(=O)C3)cc2c1c(=O)n(-c1cncc(C)c1)c(=O)n2Cc1cc(F)c(F)c(C#N)c1 [Compound I-0161]
[reply] 0.75

---

Recorded pEC50 by entry
test system: SARS-CoV-2; test: Inhibitory activity of cytopathic effect (CPE) in HEK293T/ACE2-TMPRSS2 cells; type: cell-based; conditions: Severe acute respiratory syndrome coronavirus 2, HEK-293T, 72 h; HEK293T/ACE2-TMPRSS2 cells, cultured 3 days, CellTiter-Glo 2.0 luminescence; read-out: EC50 (50% SARS-CoV-2 infected cell death inhibitory concentration)
pEC50: −log10 of the molar value.

// solved cases for pEC50 follow
COc1nc(N2CCC(O)(C(F)F)C2)cc2c1c(=O)n(-c1cncc(Cl)c1)c(=O)n2-c1ccc(F)c(Cl)c1 (stereo not drawn); > 7.00
COc1nc(N2CC[C@@H](C#N)C2)cc2c1c(=O)n(-c1cncc(C(F)F)c1)c(=O)n2-c1ccc(F)c(Cl)c1; > 7.00

[ask] Given the entry `COc1cc(-c2cc([C@H](C)O)ccc2Cl)cc2c1c(=O)n(Cc1ncn(C)n1)c(=O)n2Cc1cc(F)c(F)c(F)c1` , what pEC50 was observed with SARS-CoV-2?
[reply] > 7.00
